tested on: 485368-065-R3-J5-PDC spheroids with HUVEC/MSC, viability; assay: Anticancer human tumor 485368-065-R3-J5-PDC patient-derived pancreatic carcinoma cell line growth inhibition [RAS]; details: second compound 10 µM; first compound 0.316 µM; hits give low values;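 further: spheroids exposed to agents for seven days before readout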
Measured viability, T/C values are reported for all entries that follow.
Only the number, expressed in %, is required.

As a guide, the following entries are already answered.
CC(Nc1ccc2c(c1)OCCn1cc(N3C(=O)OCC3C(F)F)nc1-2)C(N)=O (centres undefined) + C#Cc1c(F)ccc2cc(O)cc(-c3ncc4c(N5CC6CCC(C5)N6)nc(OCC56CCCN5CC(F)C6)nc4c3F)c12	24.6
C=CC(=O)Nc1cc(Nc2nccc(-c3cn(C)c4ccccc34)n2)c(OC)cc1N(C)CCN(C)C + C#Cc1c(F)ccc2cc(O)cc(-c3ncc4c(N5CC6CCC(C5)N6)nc(OCC56CCCN5CC(F)C6)nc4c3F)c12	28.6
CC(C)NCC(C(=O)N1CCN(c2ncnc3c2C(C)CC3O)CC1)c1ccc(Cl)cc1 (centres undefined) + C#Cc1c(F)ccc2cc(O)cc(-c3ncc4c(N5CC6CCC(C5)N6)nc(OCC56CCCN5CC(F)C6)nc4c3F)c12	40.3

Shifting focus to the molecule that follows.
Requested field: viability, T/C. Item: CCN1CCN(Cc2ccc(Nc3ncc(F)c(-c4cc(F)c5nc(C)n(C(C)C)c5c4)n3)nc2)CC1 + C#Cc1c(F)ccc2cc(O)cc(-c3ncc4c(N5CC6CCC(C5)N6)nc(OCC56CCCN5CC(F)C6)nc4c3F)c12
29.9
